Tested on: HCT-15 colon
Experiment: NCI tumour cell line growth inhibition, 48 h
readout-kind: TGI

A selection of reference data follows.
molecule	measured
COc1cc(-c2cc(=O)c3ccccc3[nH]2)cc(OC)c1OC	> 75 µM
OC1COC(OCc2ccccc2)C(O)C1O (stereo unspecified)	> 100 µM
CC(=O)CC(=O)CCC(=O)Nc1cccc(C(F)(F)F)c1	> 100 µM
C=CCNC(=O)CN(CC(=O)OC)C1CCCCC1N(CC(=O)OC)CC(=O)OC (stereo unspecified)	> 100 µM
COc1cc(/C=C/C(=O)O[C@H]2[C@H](O[C@@H]3O[C@@H](C)[C@H](O)[C@@H](O)[C@H]3O)[C@@H](O)[C@H](OCCc3ccc(O)c(O)c3)O[C@@H]2COC2OCC(O)(CO)C2O)ccc1O (stereo partly specified)	> 100 µM

Alright, here's another molecule for you.
For HCT-15 colon, give the measured TGI of the entry "CSc1c(C#N)c(S)n(-c2ccc(Cl)cc2)c(=O)c1C#N" > 100 µM

* * *

Test system: SR leukemia
Assay: NCI tumour cell line growth inhibition, 48 h
Reported TGI values for a set of compounds

> print(dat)
                                   compound          tgt  measured
1              c1cncc(CSc2ncnc3nc[nH]c23)c1  SR leukemia  > 100 µM
2  COc1ccc(-n2c(C)nc3ccc(NC4OC(CO)C(O)C(O)C4O)cc3c2=O)cc1 (stereo unspecified)  SR leukemia  > 100 µM
3         O=c1[nH]c2nc[nH]c2c(=O)n1C1CCCCC1  SR leukemia  > 100 µM
4  NCc1ccc(-c2nc(-c3ccc(Cl)c(O)c3)c(-c3ccncc3)[nH]2)cc1  SR leukemia   > 25 µM
5  Fc1ccc2nc(-c3nc(-c4ccccc4)n4ccccc34)[nH]c2c1  SR leukemia  > 100 µM

Alright, here's another compound for you.
Write down TGI measured for item "N#Cc1cccc(Nc2ncc(-c3ccccc3)o2)c1" > 25 µM

* * *

Reported TGI values for a set of compounds
Tested on: KM12 colon
Assay: NCI tumour cell line growth inhibition, 48 h

A selection of reference data follows.
compound	measured
CSC1=Nc2c(c(C)c(-c3ccccc3)n2COC(CO)CO)C2=NC(=O)CN12	> 100 µM
[Cl][Cu][Cl]	> 10 µM
C=CCN(CC=C)C(=O)[C@H](CC)[C@@H]1CC[C@@H](C)[C@@H]([C@H](C)[C@@H](O)[C@@H](C)C(=O)[C@H](CC)C2O[C@]3(C=C[C@@H](O)[C@]4(CC[C@@](C)([C@H]5CC[C@](O)(CC)[C@H](C)O5)O4)O3)[C@H](C)C[C@@H]2C)O1 (some centres not stated)	3.65 µM
O=C1/C(=C/c2ccccc2[N+](=O)[O-])COc2ccc(O)cc21	4.31 µM

For KM12 colon, give the measured TGI of the entry "C/C(N)=N/OCc1nc(C)no1" > 100 µM

For KM12 colon, give the measured TGI of the entry "CN(CCNC(=S)c1cn(C)c2c1ccc1ccccc12)CCNC(=S)c1cn(C)c2c1ccc1ccccc12" > 100 µM

For KM12 colon, give the measured TGI of the entry "Cc1cccc(CNc2ncnc3[nH]ncc23)c1" > 100 µM

* * *

System: CAKI-1 renal
Experiment: NCI tumour cell line growth inhibition, 48 h
readout-kind: GI50

A selection of reference data follows.
> print(dat)
                                   molecule           tgt  readout.kind  measured
1       Cn1c(C(=O)c2cccc3ccccc23)nc2ccccc21  CAKI-1 renal          GI50     61 µM
2  COCCOCCOCCOCCOC(=O)OC[n+]1ccc(NC(=NCCCCCCOc2ccc(Cl)cc2)NC#N)cc1  CAKI-1 renal          GI50    3.3 µM
3         CC(=O)N(O)c1ccc(/C=C/c2ccccc2)cc1  CAKI-1 renal          GI50  0.543 µM

Write down GI50 measured for item "C[C@@H](NC(=O)c1ccc(F)cc1)c1ccc2c(c1)CCN2C(=O)C1CCOCC1" > 100 µM
